Reported PBM binding z-score values for the following sequences.
System: THRa homodimer (NR concentration 90 nM)
method: PBM binding z-score (relative to random genomic background probes); higher = stronger binding; sequences stand for … in GC…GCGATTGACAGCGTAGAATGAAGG
endpoint-label: PBM binding z-score

>>> measured_number("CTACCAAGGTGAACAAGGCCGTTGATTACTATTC")
1.08
>>> measured_number("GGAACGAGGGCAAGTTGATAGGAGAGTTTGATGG")
0.249
>>> measured_number("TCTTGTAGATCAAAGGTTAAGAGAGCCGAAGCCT")
-0.582
>>> measured_number("ATCTCTCGGTAAAGTTCAGTGAAAGATCGATAGA")
0.426
>>> measured_number("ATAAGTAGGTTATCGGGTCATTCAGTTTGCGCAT")
2.93
>>> measured_number("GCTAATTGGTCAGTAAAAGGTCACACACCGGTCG")
2.1
